- target: Sphingomyelin Synthase 2 (SMS2) (Homo sapiens)
- Construct: made in house; used as homogenate
- assay method text: In vitro inhibition of sphingomyelin synthase 2, HPLC fluorogenic quantitative detecting method (C6-NBD-ceramide to C6-NBD-SM, SMS2 high-expressed insect cell homogenate)
- Type: biochemical
- test conditions: five concentrations, three parallel groups; experimental value; read-out: SMS2 Median Inhibitory Concentration IC50
Each entry below carries its recorded IC50.

{"molecule": "COCCOc1ccc(Cl)cc1COc1ccccc1C(=O)Nc1cccnc1", "target": "Sphingomyelin Synthase 2 (SMS2) (Homo sapiens)", "IC50": "11.6 µM"}
{"molecule": "O=C(Nc1cccnc1)c1cc(Cl)ccc1OCc1c(Cl)cccc1Cl", "target": "Sphingomyelin Synthase 2 (SMS2) (Homo sapiens)", "IC50": "> 25 µM"}
{"molecule": "COCCCOc1ccc(Cl)cc1COc1ccccc1C(=O)Nc1cccnc1", "target": "Sphingomyelin Synthase 2 (SMS2) (Homo sapiens)", "IC50": "4.1 µM"}
{"molecule": "COc1ccccc1COc1ccccc1C(=O)Nc1cccnc1", "target": "Sphingomyelin Synthase 2 (SMS2) (Homo sapiens)", "IC50": "0.8 µM"}
{"molecule": "O=C(Nc1cncnc1)c1ccccc1OCc1ccccc1 [Scheme I-53, 2-benzyloxy-N-(pyrimidin-5-yl) benzamide]", "target": "Sphingomyelin Synthase 2 (SMS2) (Homo sapiens)", "IC50": "> 25 µM"}

---

- target: Sphingomyelin Synthase 2 (SMS2) (Homo sapiens, UniProt Q8NHU3)
- Construct: made in house; used as homogenate
- Sequence (Q8NHU3 1-365): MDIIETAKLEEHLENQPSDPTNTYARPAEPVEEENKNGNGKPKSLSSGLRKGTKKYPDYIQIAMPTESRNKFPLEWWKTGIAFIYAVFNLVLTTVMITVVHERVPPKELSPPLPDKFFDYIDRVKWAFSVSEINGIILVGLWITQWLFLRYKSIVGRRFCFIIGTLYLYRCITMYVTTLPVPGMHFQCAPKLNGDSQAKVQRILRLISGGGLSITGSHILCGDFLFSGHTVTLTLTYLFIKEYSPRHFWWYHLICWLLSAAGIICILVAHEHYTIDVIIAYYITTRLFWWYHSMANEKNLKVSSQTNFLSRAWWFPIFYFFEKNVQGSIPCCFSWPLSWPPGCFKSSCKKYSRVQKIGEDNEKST
- assay method text: In vitro inhibition of sphingomyelin synthase 2, HPLC fluorogenic quantitative detecting method (C6-NBD-ceramide to C6-NBD-SM, SMS2 high-expressed insect cell homogenate)
- Type: biochemical
- test conditions: five concentrations, three parallel groups; experimental value; read-out: SMS2 Median Inhibitory Concentration IC50
pIC50: −log10 of the molar value.
measurement type: pIC50

{"compound": "O=C(O)c1ccc(COc2ccccc2C(=O)Nc2cccnc2)cc1 [Scheme I-46]", "result": "< 4.00"}
{"compound": "O=C(Nc1cccnc1)c1ccccc1OCc1cc(Cl)ccc1OCCN1CCOCC1 [Scheme I-51]", "result": "< 4.30"}
{"compound": "COc1ccc(COc2ccccc2C(=O)Nc2cccnc2)cc1 [Scheme I-5]", "result": "< 4.00"}
{"compound": "O=C(Nc1cccnc1)c1cc(Cl)ccc1OCc1cc(F)ccc1Cl [Scheme I-55]", "result": "< 4.60"}

---

// reported IC50 for each item listed
- target: Sphingomyelin Synthase 2 (SMS2) (Homo sapiens)
- Construct: made in house; used as homogenate
- assay method text: In vitro inhibition of sphingomyelin synthase 2, HPLC fluorogenic quantitative detecting method (C6-NBD-ceramide to C6-NBD-SM, SMS2 high-expressed insect cell homogenate)
- Format: biochemical
- test conditions: read-out: SMS2 Median Inhibitory Concentration IC50
measurement type: IC50

{"input smiles": "O=C(Nc1cccnc1)c1ccccc1OCc1ccccc1F", "result": "3500 nM"}
{"input smiles": "O=C(Nc1cccnc1)c1ccccc1OCc1c(F)cccc1Cl", "result": "1500 nM"}
{"input smiles": "O=C(Nc1cccnc1)c1ccccc1OCc1cccc(Cl)c1", "result": "1400 nM"}
{"input smiles": "O=C(Nc1cccnc1)c1ccccc1OCc1cccc(Cl)c1F", "result": "3100 nM"}
{"input smiles": "O=C(Nc1cccnc1)c1ccccc1OCc1cccc(F)c1", "result": "1600 nM"}
{"input smiles": "Cc1ccccc1COc1ccccc1C(=O)Nc1cccnc1", "result": "1500 nM"}

---

- target: Sphingomyelin Synthase 2 (SMS2) (Homo sapiens, UniProt Q8NHU3)
- Construct: made in house; used as homogenate
- Sequence (Q8NHU3 1-365): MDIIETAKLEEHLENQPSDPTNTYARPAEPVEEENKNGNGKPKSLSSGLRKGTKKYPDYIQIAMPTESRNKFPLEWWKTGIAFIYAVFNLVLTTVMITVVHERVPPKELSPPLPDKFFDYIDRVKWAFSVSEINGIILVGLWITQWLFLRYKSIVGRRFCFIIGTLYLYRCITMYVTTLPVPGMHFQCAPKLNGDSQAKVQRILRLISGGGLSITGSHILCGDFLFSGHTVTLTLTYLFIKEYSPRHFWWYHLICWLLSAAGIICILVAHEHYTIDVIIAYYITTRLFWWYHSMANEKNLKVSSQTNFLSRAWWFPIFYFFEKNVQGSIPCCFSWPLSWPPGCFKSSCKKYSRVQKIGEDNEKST
- assay method text: In vitro inhibition of sphingomyelin synthase 2, HPLC fluorogenic quantitative detecting method (C6-NBD-ceramide to C6-NBD-SM, SMS2 high-expressed insect cell homogenate)
- Type: biochemical
- test conditions: five concentrations, three parallel groups; experimental value; read-out: SMS2 Median Inhibitory Concentration IC50
pIC50: −log10 of the molar value.
# reported pIC50; entries follow
measurement type: pIC50

{"compound": "O=C(O)COc1ccccc1COc1ccccc1C(=O)Nc1cccnc1 [Scheme I-47]", "target": "Sphingomyelin Synthase 2 (SMS2) (Homo sapiens, UniProt Q8NHU3)", "prefix operator": "<", "result number": 4.00}
{"compound": "O=C(Nc1cccnc1)c1ccccc1OCc1cccc2ccccc12 [Scheme I-45]", "target": "Sphingomyelin Synthase 2 (SMS2) (Homo sapiens, UniProt Q8NHU3)", "prefix operator": "=", "result number": 5.59}
{"compound": "O=C(Nc1ccccn1)c1ccccc1OCc1ccccc1 [Scheme I-52, 2-benzyloxy-N-(pyridin-2-yl) benzamide]", "target": "Sphingomyelin Synthase 2 (SMS2) (Homo sapiens, UniProt Q8NHU3)", "prefix operator": "=", "result number": 4.93}
{"compound": "O=C(Nc1cccnc1)c1ccccc1OCc1c(Cl)cccc1Cl [Scheme I-17]", "target": "Sphingomyelin Synthase 2 (SMS2) (Homo sapiens, UniProt Q8NHU3)", "prefix operator": "=", "result number": 6.15}
{"compound": "Cc1c(Cl)cccc1COc1ccccc1C(=O)Nc1cccnc1 [Scheme I-44]", "target": "Sphingomyelin Synthase 2 (SMS2) (Homo sapiens, UniProt Q8NHU3)", "prefix operator": "=", "result number": 5.42}
{"compound": "O=C(O)COc1cccc(COc2ccccc2C(=O)Nc2cccnc2)c1 [Scheme I-48]", "target": "Sphingomyelin Synthase 2 (SMS2) (Homo sapiens, UniProt Q8NHU3)", "prefix operator": "<", "result number": 4.00}
{"compound": "O=C(Nc1cccnc1)c1ccc(Cl)cc1OCc1ccccc1Cl [Scheme I-56]", "target": "Sphingomyelin Synthase 2 (SMS2) (Homo sapiens, UniProt Q8NHU3)", "prefix operator": "<", "result number": 4.30}
{"compound": "O=C(Nc1cccnc1)c1ccccc1OCc1ccccc1C(F)(F)F [Scheme I-42]", "target": "Sphingomyelin Synthase 2 (SMS2) (Homo sapiens, UniProt Q8NHU3)", "prefix operator": "=", "result number": 5.68}
{"compound": "CCCCCCOc1ccccc1COc1ccccc1C(=O)Nc1cccnc1 [Scheme I-37]", "target": "Sphingomyelin Synthase 2 (SMS2) (Homo sapiens, UniProt Q8NHU3)", "prefix operator": "=", "result number": 6.15}

---

- target: Sphingomyelin Synthase 2 (SMS2) (Homo sapiens, UniProt Q8NHU3)
- Construct: made in house; used as homogenate
- Sequence (Q8NHU3 1-365): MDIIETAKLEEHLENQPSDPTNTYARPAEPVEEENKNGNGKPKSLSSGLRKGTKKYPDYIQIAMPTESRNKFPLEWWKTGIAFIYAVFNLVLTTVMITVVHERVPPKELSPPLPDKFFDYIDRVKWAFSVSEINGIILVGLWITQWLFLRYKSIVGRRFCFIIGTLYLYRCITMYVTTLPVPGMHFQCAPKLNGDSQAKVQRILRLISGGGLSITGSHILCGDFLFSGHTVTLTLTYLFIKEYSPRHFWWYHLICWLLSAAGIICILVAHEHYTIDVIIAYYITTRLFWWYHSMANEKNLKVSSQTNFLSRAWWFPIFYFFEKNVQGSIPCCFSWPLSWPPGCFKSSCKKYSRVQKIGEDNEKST
- assay method text: In vitro inhibition of sphingomyelin synthase 2, HPLC fluorogenic quantitative detecting method (C6-NBD-ceramide to C6-NBD-SM, SMS2 high-expressed insect cell homogenate)
- Assay type: biochemical
- test conditions: at 10 μM; read-out: inhibition rate
So basically every entry gets a class from its inhibition at 10 µM, ranges being low band = under 20%, middle band = from 20% up to 40%, high band = 40% and over

{"compound": "O=C(Nc1cccnc1)c1ccccc1OCc1cccc2ccccc12 [Scheme I-45]", "category label": "high band"}
{"compound": "O=C(Nc1cccnc1)c1cc([N+](=O)[O-])ccc1OCc1ccccc1Cl [Scheme I-57]", "category label": "low band"}
{"compound": "O=C(Nc1cccnc1)c1ccccc1OCc1cc(Cl)ccc1OCCN1CCOCC1 [Scheme I-51]", "category label": "middle band"}
{"compound": "O=C(Nc1cccnc1)c1cc(Cl)ccc1OCc1cc(F)ccc1Cl [Scheme I-55]", "category label": "middle band"}
{"compound": "O=C(Nc1cccnc1)c1cc(Cl)ccc1OCc1c(Cl)cccc1Cl [Scheme I-54]", "category label": "high band"}
{"compound": "O=C(O)COc1ccccc1COc1ccccc1C(=O)Nc1cccnc1 [Scheme I-47]", "category label": "low band"}
{"compound": "COCCCOc1ccc(Cl)cc1COc1ccccc1C(=O)Nc1cccnc1 [Scheme I-49]", "category label": "high band"}
{"compound": "CCCCCCCOc1ccccc1COc1ccccc1C(=O)Nc1cccnc1 [Scheme I-38]", "category label": "high band"}
{"compound": "O=C(O)c1ccc(COc2ccccc2C(=O)Nc2cccnc2)cc1 [Scheme I-46]", "category label": "low band"}
{"compound": "O=C(O)COc1cccc(COc2ccccc2C(=O)Nc2cccnc2)c1 [Scheme I-48]", "category label": "low band"}
{"compound": "O=C(Nc1cccnc1)c1ccccc1OCc1ccccc1OCCCCCl [Scheme I-34]", "category label": "high band"}
{"compound": "O=C(Nc1cncnc1)c1ccccc1OCc1ccccc1 [Scheme I-53, 2-benzyloxy-N-(pyrimidin-5-yl) benzamide]", "category label": "middle band"}
{"compound": "COc1ccccc1COc1ccccc1C(=O)Nc1cccnc1 [Scheme I-24]", "category label": "high band"}
{"compound": "COc1ccc(OCc2ccccc2Cl)c(C(=O)Nc2cccnc2)c1 [Scheme I-59]", "category label": "low band"}
{"compound": "CCOC(=O)COc1cccc(COc2ccccc2C(=O)Nc2cccnc2)c1 [Scheme I-22]", "category label": "low band"}
{"compound": "CCOC(=O)c1ccc(COc2ccccc2C(=O)Nc2cccnc2)cc1 [Scheme I-19]", "category label": "low band"}
{"compound": "O=C(Nc1cccnc1)c1ccc(Br)cc1OCc1ccccc1Cl [Scheme I-58]", "category label": "low band"}
{"compound": "O=C(Nc1cccnc1)c1ccccc1OCc1ccccc1OCCCCCCl [Scheme I-35]", "category label": "high band"}
